study-system: T1, Histidine-tagged human PD-1 protein (hPD-1-His) (human, UniProt Q15116 25-170, limits assumed)
T1 construct: Soluble analyte in SPR; not shown: histidine tag
T1 sequence (Q15116 25-170 limits assumed): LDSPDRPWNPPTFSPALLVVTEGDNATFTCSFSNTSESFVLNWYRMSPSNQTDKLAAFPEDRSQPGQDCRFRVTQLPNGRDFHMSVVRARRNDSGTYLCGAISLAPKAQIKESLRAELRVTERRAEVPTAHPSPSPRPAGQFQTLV
assay-explanation: SPR (Biacore T200), antibody captured on Protein A chip, hPD-1-His analyte, 1:1 fit
recorded-endpoint: Kd (nM)

# binder, recorded-endpoint, measured-value
measured = [
    ("3F1-H2K3-IgG4-S228P (antibody, V domains shown, Humanized; human IgG4 constant domains with S228P (EU numbering)) VH: QVQLQQSGAEVKKPGASVKMSCKASGYTFTSYWMHWVKQRPGQGLEWIGYINPSTGYTEYNQKFKDRATLTADKSTSTAYMELSSLRSEDTAVYYCARGVRYYFDYWGQGTLVTVSS VL: DIVMTQSPSSLAVSAGERVTMSCKSSQSLLNSRTRKNYLAWYQQKPGQSPKLLIYWASTRESGVPDRFSGSGSGTDFTLTISSVQAEDVAVYYCKQSYNLLTFGQGTKLELK", "Kd", 329),
    ("1A7-H1K1-IgG4-S228P (antibody, V domains shown, Humanized; human IgG4 constant domains with S228P (EU numbering)) VH: EVQLLESGGGLVQPGGSLRLSCAASGFTFSSYSMSWVRQAPGKRLEWVAHISSGGSSTYYPDTVKGRFTISRDNSKNTLYLQMNSLRAEDTAMYYCTRQFYYGSSFWYFDVWGQGTTVTVSS VL: DNVLTQSPATLSLSPGERATLSCKASQSVDFDGDSYMNWYQQKPGQPPRLLIYAASNLESGIPARFSGSGPGTDFTLTISSLEPEDFATYYCQQSNEDPPTFGGGTKVEIK", "Kd", 47.9),
]
